target: CXCR2 receptor (Homo sapiens (Human), UniProt P25025); assay: β-arrestin recruitment test, PathHunter HEK293-CXCR2 cells stimulated with CXCL8; type: cell-based; settings: CXCL8 10 nM
Sequence (P25025 whole entry): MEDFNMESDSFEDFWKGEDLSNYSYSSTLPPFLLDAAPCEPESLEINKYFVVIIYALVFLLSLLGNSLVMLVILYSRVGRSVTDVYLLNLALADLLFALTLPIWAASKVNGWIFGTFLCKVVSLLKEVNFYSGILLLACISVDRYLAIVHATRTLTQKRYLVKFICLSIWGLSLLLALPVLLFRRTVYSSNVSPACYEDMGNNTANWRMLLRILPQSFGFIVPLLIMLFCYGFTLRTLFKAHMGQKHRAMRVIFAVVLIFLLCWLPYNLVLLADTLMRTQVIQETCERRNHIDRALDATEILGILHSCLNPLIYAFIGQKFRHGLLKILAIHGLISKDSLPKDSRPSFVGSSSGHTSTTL
Observable: IC50 (nM)

{"columns": ["Compound", "IC50 (nM)"],
 "data": [
  ["CC[C@@H](Nc1c(Nc2ccc(Cl)c(S(C)(=O)=NC)c2O)c(=O)c1=O)c1ccccn1 (single isomer, unassigned; (-)) [Example 12]", 16],
  ["CC[C@@H](Nc1c(Nc2cccc(S(C)(=O)=NC)c2O)c(=O)c1=O)c1ccc(C)o1 (single isomer, unassigned; (+)) [Example 16]", 18]
]}

* * *

target: CXCR2 receptor (Homo sapiens (Human)); experiment: β-arrestin recruitment test, PathHunter HEK293-CXCR2 cells stimulated with CXCL8; assay type: cell-based; details: CXCL8 10 nM, class symbols
Observable: IC50

{"columns": ["Molecule", "IC50"],
 "data": [
  ["CCC(CC)Nc1c(Nc2ccc(Cl)c(S(C)(=O)=Nc3ccncc3)c2O)c(=O)c1=O (stereo not drawn) [Example 4]", "≥ 20 nM"],
  ["CC[C@@H](Nc1c(Nc2cccc(S(C)(=O)=NC)c2O)c(=O)c1=O)c1ccccn1 (single isomer, unassigned; (-)) [Example 14]", "≥ 20 nM"],
  ["CCC(CC)Nc1c(Nc2ccc(Cl)c(S(C)(=O)=NCCN(C)C)c2O)c(=O)c1=O (stereo not drawn) [Example 10]", "≥ 20 nM"],
  ["CCC(CC)Nc1c(Nc2cccc(S(C)(=O)=NC)c2O)c(=O)c1=O (single isomer, unassigned; (-)) [Example 18]", "≥ 20 nM"],
  ["CC[C@@H](Nc1c(Nc2ccc(Cl)c(S(C)(=N)=O)c2O)c(=O)c1=O)c1ccc(C)o1 (stereo partly drawn) [Example 1]", "< 20 nM"],
  ["CS(=N)(=O)c1c(Cl)ccc(NC(=O)Nc2cccc(F)c2Cl)c1O (stereo not drawn) [Example 6]", "≥ 20 nM"],
  ["CN=S(C)(=O)c1c(Cl)ccc(NC(=O)Nc2cccc(F)c2Cl)c1O (stereo not drawn) [Example 7]", "≥ 20 nM"],
  ["CC[C@@H](Nc1c(Nc2ccc(Cl)c(S(C)(=O)=NCCOC)c2O)c(=O)c1=O)c1ccc(C)o1 (stereo partly drawn) [Example 11]", "≥ 20 nM"]
]}

Ask: Which value of IC50 has been reported for CC[C@@H](Nc1c(Nc2ccc(Cl)c(S(C)(=O)=NC)c2O)c(=O)c1=O)c1ccccn1 (single isomer, unassigned; (+)) [Example 13] in the records?
Result: ≥ 20 nM

* * *

Target: CXCR1 receptor (Homo sapiens (Human), UniProt P25024)
Sequence (P25024 whole entry): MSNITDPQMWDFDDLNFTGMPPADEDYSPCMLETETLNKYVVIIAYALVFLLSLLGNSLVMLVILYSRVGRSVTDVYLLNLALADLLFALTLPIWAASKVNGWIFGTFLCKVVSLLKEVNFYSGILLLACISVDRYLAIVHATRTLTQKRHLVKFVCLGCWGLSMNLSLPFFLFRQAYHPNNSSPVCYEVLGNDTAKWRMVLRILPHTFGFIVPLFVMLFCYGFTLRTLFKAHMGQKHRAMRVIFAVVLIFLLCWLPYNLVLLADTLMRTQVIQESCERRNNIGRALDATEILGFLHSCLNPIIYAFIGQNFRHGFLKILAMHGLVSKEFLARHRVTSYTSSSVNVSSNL
Assay: β-arrestin recruitment test, U2OS hCXCR1 β-arrestin cells stimulated with CXCL8
Type: cell-based
Conditions: CXCL8 10 nM
Experimental: The in vitro affinity of the compounds of the present invention for the CXCR1 and CXCR2 receptors is determined on a functional test of β-arrestin recruitment type after activation of the receptor. […]
pIC50: −log10 of the molar value.
Observable: pIC50

{"columns": ["Molecule", "pIC50"],
 "data": [
  ["CC[C@@H](Nc1c(Nc2cccc(S(C)(=O)=NC)c2O)c(=O)c1=O)c1ccc(C)o1 (single isomer, unassigned; (+))", 7.44],
  ["CC[C@@H](Nc1c(Nc2ccc(Cl)c(S(C)(=O)=NC)c2O)c(=O)c1=O)c1ccccn1 (single isomer, unassigned; (-))", 7.55]
]}
